Measured kon accompanies every entry in the list below.
study target: RSV F protein (purified) (respiratory syncytial virus)
test: SPR (BIAcore), F protein immobilised
I only need the number, in M⁻¹ s⁻¹, no unit after it.

P12f2 Fab (Fab, V domains shown) VH: QVTLRESGPALVKPTQTLTLTCTFSGFSLSTPGMSVGWIRQPPGKALEWLADIWWDDKKHYNPSLKDRLTISKDTSKNQVVLKVTNMDPADTATYYCARDMIFNFYFDVWGQGTTVTVSS VL: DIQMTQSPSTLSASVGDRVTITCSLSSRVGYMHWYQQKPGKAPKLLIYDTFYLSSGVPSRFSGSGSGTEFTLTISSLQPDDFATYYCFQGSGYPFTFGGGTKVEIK | 663000
Y10H6 Fab (Fab, V domains shown) VH: QVTLRESGPALVKPTQTLTLTCTFSGFSLSTAGMSVGWIRQPPGKALEWLADIWWDDKKDYNPSLKSRLTISKDTSKNQVVLKVTNMDPADTATYYCARDMIFNWYFDVWGQGTTVTVSS VL: DIQMTQSPSTLSASVGDRVTITCSASSSVGYMHWYQQKPGKAPKLLIYDTRYLSSGVPSRFSGSGSGTEFTLTISSLQPDDFATYYCFQGSGYPFTFGGGTKVEIK | 757000
A12a6 Fab (Fab, V domains shown) VH: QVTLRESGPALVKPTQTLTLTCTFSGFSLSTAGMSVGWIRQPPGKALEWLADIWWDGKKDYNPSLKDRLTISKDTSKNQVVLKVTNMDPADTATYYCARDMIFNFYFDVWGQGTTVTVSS VL: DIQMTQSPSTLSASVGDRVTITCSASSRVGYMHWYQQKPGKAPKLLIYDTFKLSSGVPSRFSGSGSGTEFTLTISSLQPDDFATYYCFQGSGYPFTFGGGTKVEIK | 743000

Exam item: Any idea what kon was measured for M3H9 Fab (Fab, V domains shown) VH: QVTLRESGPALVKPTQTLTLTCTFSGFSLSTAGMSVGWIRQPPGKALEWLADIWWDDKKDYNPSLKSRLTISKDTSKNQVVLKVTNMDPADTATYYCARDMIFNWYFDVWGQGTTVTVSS VL: DIQMTQSPSTLSASVGDRVTITCSASSSVGYMHWYQQKPGKAPKLLIYDTYKQTSGVPSRFSGSGSGTEFTLTISSLQPDDFATYYCFQGSGYPFTFGGGTKVEIK ?
Marked response: 605000

Exam item: Need kon, item A13a11 Fab (Fab, V domains shown) VH: QVTLRESGPALVKPTQTLTLTCTFSGFSLSTAGMSVGWIRQPPGKALEWLADIWWDDKKHYNPSLKDRLTISKDTSKNQVVLKVTNMDPADTATYYCARDMIFNWYFDVWGQGTTVTVSS VL: DIQMTQSPSTLSASVGDRVTITCSPSSRVGYMHWYQQKPGKAPKLLIYDTYRHSSGVPSRFSGSGSGTEFTLTISSLQPDDFATYYCFQGSGYPFTFGGGTKVEIK
Marked response: 735000

Exam item: Request the reported kon associated with A1e9 Fab (Fab, V domains shown, also called Ale9) VH: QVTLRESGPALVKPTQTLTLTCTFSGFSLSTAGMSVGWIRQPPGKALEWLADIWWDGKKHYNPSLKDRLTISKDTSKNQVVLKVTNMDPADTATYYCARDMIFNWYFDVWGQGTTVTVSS VL: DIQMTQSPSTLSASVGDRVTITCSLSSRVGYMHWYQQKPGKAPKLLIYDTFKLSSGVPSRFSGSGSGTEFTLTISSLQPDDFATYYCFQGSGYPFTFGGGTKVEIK
Marked response: 790000
